Just for reference, patent US20040171086A1 is where these values come from.

- systemUnderTest: TLR7 (Homo sapiens, UniProt Q9NYK1)
- Sequence (Q9NYK1 27-1049): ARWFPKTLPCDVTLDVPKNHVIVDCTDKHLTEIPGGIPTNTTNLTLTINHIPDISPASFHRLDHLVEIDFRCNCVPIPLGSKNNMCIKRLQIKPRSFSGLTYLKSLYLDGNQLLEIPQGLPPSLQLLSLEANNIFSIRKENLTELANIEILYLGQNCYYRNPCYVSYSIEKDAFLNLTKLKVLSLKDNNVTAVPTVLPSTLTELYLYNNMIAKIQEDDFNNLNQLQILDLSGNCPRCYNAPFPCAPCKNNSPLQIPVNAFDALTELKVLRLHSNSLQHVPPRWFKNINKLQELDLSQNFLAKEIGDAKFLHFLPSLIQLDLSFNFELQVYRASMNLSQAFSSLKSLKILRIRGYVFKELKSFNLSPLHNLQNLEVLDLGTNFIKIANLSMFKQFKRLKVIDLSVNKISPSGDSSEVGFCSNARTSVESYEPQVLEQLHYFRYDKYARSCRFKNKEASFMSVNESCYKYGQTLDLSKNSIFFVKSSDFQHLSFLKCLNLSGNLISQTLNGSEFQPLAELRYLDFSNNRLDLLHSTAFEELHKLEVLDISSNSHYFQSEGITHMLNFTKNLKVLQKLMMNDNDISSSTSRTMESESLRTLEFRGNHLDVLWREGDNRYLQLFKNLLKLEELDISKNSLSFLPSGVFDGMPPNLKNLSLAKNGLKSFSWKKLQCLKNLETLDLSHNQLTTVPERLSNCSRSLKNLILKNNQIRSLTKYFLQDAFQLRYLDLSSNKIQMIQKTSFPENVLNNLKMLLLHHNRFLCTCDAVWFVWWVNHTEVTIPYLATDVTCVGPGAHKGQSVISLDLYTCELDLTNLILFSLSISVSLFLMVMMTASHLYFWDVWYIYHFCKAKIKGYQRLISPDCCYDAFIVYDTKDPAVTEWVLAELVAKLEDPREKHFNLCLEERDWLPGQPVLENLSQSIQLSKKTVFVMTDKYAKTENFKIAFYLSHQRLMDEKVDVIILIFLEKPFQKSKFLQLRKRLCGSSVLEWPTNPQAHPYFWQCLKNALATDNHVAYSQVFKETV
- protocolDetails: IFN-α1-luciferase reporter assay in genetically modified Namalwa cells, TLR7
- Type: cell-based
- Design: expressed in transfected cells; host or cells: Namalwa (ATCC CRL-1432)
- appliedConditions: 10 μM IRM, 18 hours
measuredEndpoint: TLR7: fold increase of the IFN-α1-induced luciferase signal compared to a DMSO control (fold increase)

Example entries and their recorded answers appear below.
[
  {
    "compound": "COCCc1nc2c(N)nc3ccccc3c2n1CCOCCNC(=O)N1CCOCC1 [IRM49]",
    "systemUnderTest": "TLR7 (Homo sapiens, UniProt Q9NYK1)",
    "quantitativeResult": 1.95
  },
  {
    "compound": "CCCCc1nc2c(N)nc3ccccc3c2n1CCCCCS(C)(=O)=O [IRM6]",
    "systemUnderTest": "TLR7 (Homo sapiens, UniProt Q9NYK1)",
    "quantitativeResult": 3.09
  },
  {
    "compound": "CCc1nc2c(N)nc3ccccc3c2n1CCCCSc1cc(Cl)cc(Cl)c1 [IRM14]",
    "systemUnderTest": "TLR7 (Homo sapiens, UniProt Q9NYK1)",
    "quantitativeResult": 1.40
  }
]

(a) CCc1nc2c(N)nc3ccc(OCc4ccccc4)cc3c2n1CCCCNC(=O)c1ccccc1 [IRM48]
(b) Cc1nc2c(N)nc3ccccc3c2n1CC(C)(C)O [IRM34]
*Q* Parameter check: reported TLR7: fold increase of the IFN-α1-induced luciferase signal compared to a DMSO control is higher for which label, a or b ? Respond with the label that goes with your answer.
*A* b
(b: 3.37 fold increase, a: 1.62 fold increase)

----------
- systemUnderTest: human TLR8 (Homo sapiens, UniProt Q9NR97)
- Construct: expressed in transfected cells; host or cells: HEK293 (ATCC CRL-1573), pIRES vector, G-418 selected
- Sequence (Q9NR97 27-1041): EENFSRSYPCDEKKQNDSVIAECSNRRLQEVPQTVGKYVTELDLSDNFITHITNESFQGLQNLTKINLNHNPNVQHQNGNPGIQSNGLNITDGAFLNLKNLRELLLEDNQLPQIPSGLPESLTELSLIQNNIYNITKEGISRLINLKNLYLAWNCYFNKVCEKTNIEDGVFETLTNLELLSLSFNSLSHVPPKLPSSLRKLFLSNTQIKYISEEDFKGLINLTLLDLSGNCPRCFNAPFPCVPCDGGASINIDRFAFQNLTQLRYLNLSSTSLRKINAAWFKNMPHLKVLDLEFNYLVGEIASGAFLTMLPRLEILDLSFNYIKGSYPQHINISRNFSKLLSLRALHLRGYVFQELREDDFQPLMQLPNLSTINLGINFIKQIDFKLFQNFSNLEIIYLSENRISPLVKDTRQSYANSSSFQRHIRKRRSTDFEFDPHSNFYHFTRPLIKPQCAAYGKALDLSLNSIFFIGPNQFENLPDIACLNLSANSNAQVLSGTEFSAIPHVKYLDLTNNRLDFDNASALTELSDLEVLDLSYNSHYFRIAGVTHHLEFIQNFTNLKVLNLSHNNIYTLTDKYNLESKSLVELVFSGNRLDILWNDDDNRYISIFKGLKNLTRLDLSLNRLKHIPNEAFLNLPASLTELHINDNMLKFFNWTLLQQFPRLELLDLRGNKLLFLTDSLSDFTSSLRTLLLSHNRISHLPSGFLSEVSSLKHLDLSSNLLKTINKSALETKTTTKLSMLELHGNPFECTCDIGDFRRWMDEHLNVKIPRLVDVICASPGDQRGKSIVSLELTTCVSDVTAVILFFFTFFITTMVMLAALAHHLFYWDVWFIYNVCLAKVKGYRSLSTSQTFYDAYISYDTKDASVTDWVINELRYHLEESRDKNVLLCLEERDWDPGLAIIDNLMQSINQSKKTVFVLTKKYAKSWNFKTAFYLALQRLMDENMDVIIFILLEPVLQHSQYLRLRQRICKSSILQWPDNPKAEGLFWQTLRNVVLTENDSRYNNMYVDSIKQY
- protocolDetails: NFκB-luciferase reporter assay in HEK293 cells transfected with human TLR8 (HEK293-TLR8)
- Format: cell-based
- appliedConditions: HEK293-TLR8, 10 μM IRM, 16 hours
measuredEndpoint: TLR8: fold increase of NFκB-induced luciferase signal compared to a DMSO control (fold increase)

(A) CCOCc1nc2c(N)nc3ccccc3c2n1CC(C)C [IRM1]
(B) CCc1nc2c(N)nc3ccccc3c2n1CCOCCNC(=O)Nc1ccccc1 [IRM13]
*Q* Which value of TLR8: fold increase of NFκB-induced luciferase signal compared to a DMSO control is numerically greater: that of A or that of B ? Reply briefly: the label of your chosen item.
*A* B
(B: 6.25 fold increase, A: 1.02 fold increase)

(a) CCOCc1nc2c(N)nc3c(c2n1CC(C)(C)O)CCCC3 [IRM16]
(b) CCc1nc2c(N)nc3ccccc3c2n1CCCCSc1cc(Cl)cc(Cl)c1 [IRM14]
*Q* Hi, I'm comparing a with b and wondering which one has the bigger number for TLR8: fold increase of NFκB-induced luciferase signal compared to a DMSO control. Any idea? Pick one and reply with its label.
*A* a

(a) COCCc1nc2c(N)nc3c(c2n1CC(C)(C)NS(C)(=O)=O)CCCC3 [IRM22]
(b) CCc1nc2c(N)nc3ccccc3c2n1CCCCNC(=O)C1CCCCC1 [IRM8]
*Q* Between the entries labelled a and b , which has a larger TLR8: fold increase of NFκB-induced luciferase signal compared to a DMSO control value on record? To answer, give the label that identifies your chosen option.
*A* a

(I) COCCc1nc2c(N)nc3ccccc3c2n1CCOCCNC(=O)Nc1ccccc1 [IRM19]
(II) COCCc1nc2c(N)nc3ccccc3c2n1CCCNS(=O)(=O)c1ccc(C)cc1 [IRM7]
*Q* Consider entries I and II . Which has the numerically lower TLR8: fold increase of NFκB-induced luciferase signal compared to a DMSO control? Indicate which entry you chose by stating its label.
*A* II
(II: 0.86 fold increase, I: 7.25 fold increase)

----------
- systemUnderTest: TLR6 (Homo sapiens, UniProt Q9Y2C9)
- Construct: expressed in transfected cells; host or cells: Namalwa (ATCC CRL-1432), pCI-TLR6 vector, G418 selected
- Sequence (Q9Y2C9 32-796): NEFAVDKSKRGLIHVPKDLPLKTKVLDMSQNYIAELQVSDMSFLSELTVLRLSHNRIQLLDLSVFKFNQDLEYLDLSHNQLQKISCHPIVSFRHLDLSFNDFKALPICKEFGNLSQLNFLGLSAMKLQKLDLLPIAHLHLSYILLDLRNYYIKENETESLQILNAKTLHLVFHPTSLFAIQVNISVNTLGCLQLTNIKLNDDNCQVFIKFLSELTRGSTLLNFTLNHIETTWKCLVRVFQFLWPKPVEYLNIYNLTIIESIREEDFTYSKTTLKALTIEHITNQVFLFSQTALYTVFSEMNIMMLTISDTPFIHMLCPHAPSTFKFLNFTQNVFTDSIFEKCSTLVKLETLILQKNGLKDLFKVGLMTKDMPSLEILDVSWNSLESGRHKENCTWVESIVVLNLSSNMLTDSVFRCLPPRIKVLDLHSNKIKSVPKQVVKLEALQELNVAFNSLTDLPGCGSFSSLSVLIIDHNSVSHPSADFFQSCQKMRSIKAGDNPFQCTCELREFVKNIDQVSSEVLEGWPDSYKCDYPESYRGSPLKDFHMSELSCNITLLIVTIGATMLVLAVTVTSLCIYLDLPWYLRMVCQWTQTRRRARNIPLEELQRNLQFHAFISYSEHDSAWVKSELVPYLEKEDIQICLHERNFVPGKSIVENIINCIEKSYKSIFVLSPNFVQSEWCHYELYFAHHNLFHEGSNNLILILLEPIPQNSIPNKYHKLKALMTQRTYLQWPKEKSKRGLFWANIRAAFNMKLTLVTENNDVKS
- protocolDetails: IFN-α1-luciferase reporter assay in genetically modified Namalwa cells, TLR6
- Type: cell-based
- appliedConditions: 10 μM IRM, 18 hours
measuredEndpoint: TLR6: fold increase of the IFN-α1-induced luciferase signal compared to a DMSO control (fold increase)

[
  {
    "compound": "Cc1nc(N)c2nc(C)n(CCCCCS(=O)(=O)c3ccccc3)c2c1C [IRM33]",
    "quantitativeResult": 13.12
  }
]

(P) Nc1nc2ccccc2c2c1ncn2CCCCCCCCNC(=O)c1ccccc1 [IRM43]
(Q) CCCCc1nc2c(N)nc3ccccc3c2s1 [IRM27, 2-butylthiazolo[4,5-c]quinolin-4-amine]
*Q* Select the item whose TLR6: fold increase of the IFN-α1-induced luciferase signal compared to a DMSO control value is smaller, choosing between P and Q . Field: selected label. Fill in the label of the entry you choose.
*A* P
(P: 1.07 fold increase, Q: 6.28 fold increase)

(1) Nc1nc2ccccc2c2c1ncn2CCCCNC(=O)c1cnc2ccccc2c1 [IRM28]
(2) CCCCc1nc2c(N)nc3ccccc3c2n1CCCNC(=O)Nc1ccccc1 [IRM32]
(3) CCCCc1nc2c(N)nc3cccnc3c2n1CCNC(=O)c1ccc(Br)s1 [IRM42]
*Q* Hey, can you sort those compounds up there by TLR6: fold increase of the IFN-α1-induced luciferase signal compared to a DMSO control, smallest first? Ranked list of labels, please, in the requested order.
*A* 3, 1, 2
